Tested on: microtubules (taxoid site)
Experiment: Inhibition of [^3H]paclitaxel binding to microtubules
Parameters: species or system Bovine
Details: 2.0 µM tubulin as microtubules, radiolabeled ligand 4.0 µM, inhibitor 20 µM
recorded metric: % inhibition ± SD, radiolabeled ligand [^3H]paclitaxel (%)
Answer format: numeric, % implied, no suffix.

Exercise: Query for microtubules (taxoid site): what % inhibition ± SD, radiolabeled ligand [^3H]paclitaxel does the record show for C=C1C[C@H](C)C[C@@H]2CC=C[C@@H](C/C=C\C(=O)O[C@H]([C@@H](O)/C=C/[C@@H]3CC(C)=CCO3)C[C@@H]3O[C@H]3[C@@H](O)C1)O2 [laulimalide] ?
Key: 1.7

Exercise: Query for microtubules (taxoid site): what % inhibition ± SD, radiolabeled ligand [^3H]paclitaxel does the record show for C=C/C=C\[C@H](C)[C@H](OC(N)=O)[C@@H](C)[C@H](O)[C@@H](C)C/C(C)=C\[C@H](C)[C@@H](O)[C@@H](C)/C=C\[C@@H](O)C[C@@H]1OC(=O)[C@H](C)[C@@H](O)[C@H]1C [discodermolide] ?
Key: 87

Exercise: Query for microtubules (taxoid site): what % inhibition ± SD, radiolabeled ligand [^3H]paclitaxel does the record show for CC[C@@H](/C=C(/C)[C@H]1C[C@H](OC)C[C@@H](O)C(C)(C)[C@]2(O)O[C@H](C[C@H](OC)[C@@H](O)C(=O)O1)C[C@H](OC)[C@@H]2O)CO [peloruside A] ?
Key: 5.1

Exercise: Query for microtubules (taxoid site): what % inhibition ± SD, radiolabeled ligand [^3H]paclitaxel does the record show for C/C(=C\c1csc(C)n1)[C@@H]1C[C@@H]2O[C@]2(C)CCC[C@H](C)[C@H](O)[C@@H](C)C(=O)C(C)(C)[C@@H](O)CC(=O)O1 [epothilone B] ?
Key: 79
